biological target: C. elegans (N2) complex I (NADH:ubiquinone oxidoreductase) (Caenorhabditis elegans, UniProt P24887+Q93873+Q94360); experiment: biochemical; type: biochemical; conditions: 0.625 µM; wild-type C. elegans mitochondria; mean of replicates; read-out: percent (%) in vitro complex I activity relative to solvent control
Sequence (Q94360 17-199): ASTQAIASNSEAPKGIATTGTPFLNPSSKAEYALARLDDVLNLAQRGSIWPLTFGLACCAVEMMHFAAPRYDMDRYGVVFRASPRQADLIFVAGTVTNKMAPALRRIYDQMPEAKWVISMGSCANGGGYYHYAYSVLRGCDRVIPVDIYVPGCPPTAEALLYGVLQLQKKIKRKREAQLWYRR
Sequence (P24887 whole entry): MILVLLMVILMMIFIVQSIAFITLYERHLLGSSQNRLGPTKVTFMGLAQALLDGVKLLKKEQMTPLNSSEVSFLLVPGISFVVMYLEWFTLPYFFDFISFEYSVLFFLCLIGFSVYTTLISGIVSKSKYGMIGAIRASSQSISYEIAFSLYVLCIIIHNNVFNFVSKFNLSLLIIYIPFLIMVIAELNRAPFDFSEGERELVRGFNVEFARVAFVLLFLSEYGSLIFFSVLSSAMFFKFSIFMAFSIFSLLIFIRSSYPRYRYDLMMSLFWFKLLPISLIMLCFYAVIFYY
Sequence (Q93873 31-482): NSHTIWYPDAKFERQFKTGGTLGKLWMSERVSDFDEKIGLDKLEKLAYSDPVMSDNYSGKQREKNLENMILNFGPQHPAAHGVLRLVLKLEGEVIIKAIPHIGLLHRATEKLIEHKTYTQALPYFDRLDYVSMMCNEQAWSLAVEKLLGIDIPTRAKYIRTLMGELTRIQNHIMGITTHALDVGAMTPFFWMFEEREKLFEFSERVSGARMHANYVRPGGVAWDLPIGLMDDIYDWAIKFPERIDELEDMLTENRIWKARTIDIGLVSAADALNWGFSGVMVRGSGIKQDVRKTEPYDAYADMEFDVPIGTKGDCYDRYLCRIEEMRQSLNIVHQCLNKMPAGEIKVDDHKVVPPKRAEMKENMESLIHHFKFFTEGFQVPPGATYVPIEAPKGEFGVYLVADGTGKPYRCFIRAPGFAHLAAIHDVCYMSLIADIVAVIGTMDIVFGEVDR
Measured remaining activity at 0.625 µM, listed per entry.
# output: bare number, implied unit %

Any idea what remaining activity at 0.625 µM was measured for COc1ccc(Cc2nccc3cc(OC)c(OC)cc23)cc1OC [Papaverine, reference compound] ?
100

Requested field: remaining activity at 0.625 µM. Item: CC(C)Cc1ccc(C(C)c2nc3ccccc3n2C)cc1 (stereo not shown)
87

For the compound shown here, COc1cc2c(cc1OC)C(c1ccc(-c3ccc(Cl)c(Cl)c3)o1)=NCC2 , give the reported remaining activity at 0.625 µM.
100

For the compound shown here, COc1cc2c(cc1OC)C(/C=C/c1ccc(N(C)C)cc1)=NCC2 , give the reported remaining activity at 0.625 µM.
108

Can you look up the measured remaining activity at 0.625 µM of COC(=O)Nc1nc2ccc(Sc3ccccc3)cc2[nH]1 [fenbendazole, reference compound] for me?
101

Query: remaining activity at 0.625 µM; subject: COC(=O)Nc1nc2ccc(C(=O)c3ccccc3)cc2[nH]1 [mebendazole, reference compound]
105

For the compound shown here, COc1cc2c(cc1OC)C(C(C)c1ccc(CC(C)C)cc1)=NCC2 (stereo not shown) , give the reported remaining activity at 0.625 µM.
100

Attribution: paper PMC11079024
